# IC50 listing for each entry below
- System: 922993-354-T-J3-PDC complex spheroids, viability, % test/control
- procedureText: Anticancer human tumor 922993-354-T-J3-PDC patient-derived endometrial carcinoma cell line growth inhibition [CLK]
- appliedConditions: curve of first compound; second compound 0.1 µM
- Source text: A high-throughput screen of multi-cell type tumor spheroids was designed to identify active combinations of […] and targeted small molecules. Complex spheroids include a stromal component modeled by human endothelial cells (HUVEC) and fibroblasts modeled by human mesenchymal stem cells (MSCs). […] Compounds. […] If the clinical Cmax for an agent had not been determined, the highest concentration tested was 10 microM. […]

{"columns": ["compound", "IC50"],
 "data": [
  ["CC1(C)CCC(CN2CCN(c3ccc(C(=O)NS(=O)(=O)c4ccc(NCC5CCOCC5)c([N+](=O)[O-])c4)c(Oc4cnc5[nH]ccc5c4)c3)CC2)=C(c2ccc(Cl)cc2)C1 + CNC(=O)c1ccc(Nc2nc(OC3CCCC3)c3c(-c4ccc5nc(C)oc5c4)c[nH]c3n2)c(OC)c1", "> 10 µM"]
]}

Let us examine a further case.
Request: For 922993-354-T-J3-PDC complex spheroids, viability, % test/control, provide IC50 of CC1COCCN1c1cc(C2(S(C)(=N)=O)CC2)nc(-c2ccnc3[nH]ccc23)n1 (configuration not stated) + CNC(=O)c1ccc(Nc2nc(OC3CCCC3)c3c(-c4ccc5nc(C)oc5c4)c[nH]c3n2)c(OC)c1 please.
Response: > 10 µM

---

- Test system: 922993-354-T-J3-PDC complex spheroids, viability, % test/control
- procedureText: Anticancer human tumor 922993-354-T-J3-PDC cell line growth inhibition [CLK];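 further: spheroids exposed to the agents for 7 days before readout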
- appliedConditions: second compound 0.316 µM; first compound 0.0316 µM; stronger effect = lower value
Some compounds, each annotated with its measured viability, T/C.
The figure you give is taken to be in %; do not add the unit.

{"columns": ["compound", "quantityMeasured", "unitLabel", "recordedResult"],
 "data": [
  ["COc1ccc([C@@H](O)c2cc(-c3ncnc4cc(N5CCOCC5)ccc34)c(F)cc2Cl)nn1 + CNC(=O)c1ccc(Nc2nc(OC3CCCC3)c3c(-c4ccc5nc(C)oc5c4)c[nH]c3n2)c(OC)c1", "viability, T/C", "%", 64.3],
  ["C#Cc1c(F)ccc2cc(O)cc(-c3ncc4c(N5CC6CCC(C5)N6)nc(OCC56CCCN5CC(F)C6)nc4c3F)c12 (stereo unspecified) + CN1CCN(c2cc(C(=O)Nc3cc4cc(-c5cnn(C)c5)ccc4cn3)ccn2)CC1", "viability, T/C", "%", 57],
  ["COC1C=CCC(C)C(C)S(=O)(=O)NC(=O)c2ccc3c(c2)N(CC2CCC21)CC1(CCCc2cc(Cl)ccc21)CO3 (stereo unspecified) + CNC(=O)c1ccc(Nc2nc(OC3CCCC3)c3c(-c4ccc5nc(C)oc5c4)c[nH]c3n2)c(OC)c1", "viability, T/C", "%", 64.6],
  ["O=C(c1cc(Cc2n[nH]c(=O)c3ccccc23)ccc1F)N1CCN(C(=O)C2CC2)CC1 + CNC(=O)c1ccc(Nc2nc(OC3CCCC3)c3c(-c4ccc5nc(C)oc5c4)c[nH]c3n2)c(OC)c1", "viability, T/C", "%", 73.5],
  ["CCc1c2c(nc3ccc(O)cc13)-c1cc3c(c(=O)n1C2)COC(=O)[C@]3(O)CC + CN1CCN(c2cc(C(=O)Nc3cc4cc(-c5cnn(C)c5)ccc4cn3)ccn2)CC1", "viability, T/C", "%", 9.9]
]}

Request: Value lookup for viability, T/C; key = CCc1c2c(nc3ccc(O)cc13)-c1cc3c(c(=O)n1C2)COC(=O)[C@]3(O)CC + CNC(=O)c1ccc(Nc2nc(OC3CCCC3)c3c(-c4ccc5nc(C)oc5c4)c[nH]c3n2)c(OC)c1
Response: 32.6

Request: For CCN1CCN(Cc2ccc(Nc3ncc(F)c(-c4cc(F)c5nc(C)n(C(C)C)c5c4)n3)nc2)CC1 + CNC(=O)c1ccc(Nc2nc(OC3CCCC3)c3c(-c4ccc5nc(C)oc5c4)c[nH]c3n2)c(OC)c1 , what is its reported viability, T/C?
Response: 57.4

Request: Requested field: viability, T/C. Item: CC(Nc1ccc2c(c1)OCCn1cc(N3C(=O)OCC3C(F)F)nc1-2)C(N)=O (stereo unspecified) + CNC(=O)c1ccc(Nc2nc(OC3CCCC3)c3c(-c4ccc5nc(C)oc5c4)c[nH]c3n2)c(OC)c1
Response: 71.7

Request: Dear colleague, I am looking for the recorded viability, T/C of the following compound: O=c1[nH]cc(F)c(=O)[nH]1 + CNC(=O)c1ccc(Nc2nc(OC3CCCC3)c3c(-c4ccc5nc(C)oc5c4)c[nH]c3n2)c(OC)c1
Response: 68

Request: What measured viability, T/C goes with CC1COCCN1c1cc(C2(S(C)(=N)=O)CC2)nc(-c2ccnc3[nH]ccc23)n1 (stereo unspecified) + CN1CCN(c2cc(C(=O)Nc3cc4cc(-c5cnn(C)c5)ccc4cn3)ccn2)CC1 ?
Response: 38.1

Request: Form field: reported viability, T/C of CC(CO)NC(=O)c1cc(-c2ccc(Cl)cc2)nn(-c2cnn(C)c2)c1=O (stereo unspecified) + CNC(=O)c1ccc(Nc2nc(OC3CCCC3)c3c(-c4ccc5nc(C)oc5c4)c[nH]c3n2)c(OC)c1
Response: 59

---

- System: 922993-354-T-J3-PDC complex spheroids, viability, % test/control
- procedureText: Anticancer human tumor 922993-354-T-J3-PDC cell line growth inhibition [CLK];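 further: spheroids exposed to the agents for 7 days before readout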
- appliedConditions: curve of first compound; second compound 0.1 µM
quantityMeasured: IC50 (µM)

{"columns": ["compound", "measurementTarget", "quantityMeasured", "recordedResult"],
 "data": [
  ["COc1c(OCCCN2CCOCC2)ccc2c3n(c(=NC(=O)c4cnc(N)nc4)nc12)CCN3 + CNC(=O)c1ccc(Nc2nc(OC3CCCC3)c3c(-c4ccc5nc(C)oc5c4)c[nH]c3n2)c(OC)c1", "922993-354-T-J3-PDC complex spheroids, viability, % test/control", "IC50", 0.238],
  ["COc1cccc2c1C(=O)c1c(O)c3c(c(O)c1C2=O)CC(O)(C(=O)CO)CC3OC1CC(N)C(O)C(C)O1 (stereo unspecified) + CN1CCN(c2cc(C(=O)Nc3cc4cc(-c5cnn(C)c5)ccc4cn3)ccn2)CC1", "922993-354-T-J3-PDC complex spheroids, viability, % test/control", "IC50", 1.84],
  ["COC1C=CCC(C)C(C)S(=O)(=O)NC(=O)c2ccc3c(c2)N(CC2CCC21)CC1(CCCc2cc(Cl)ccc21)CO3 (stereo unspecified) + CN1CCN(c2cc(C(=O)Nc3cc4cc(-c5cnn(C)c5)ccc4cn3)ccn2)CC1", "922993-354-T-J3-PDC complex spheroids, viability, % test/control", "IC50", 3.79],
  ["CC(C)CC(NC(=O)C(Cc1ccccc1)NC(=O)c1cnccn1)B(O)O (stereo unspecified) + CN1CCN(c2cc(C(=O)Nc3cc4cc(-c5cnn(C)c5)ccc4cn3)ccn2)CC1", "922993-354-T-J3-PDC complex spheroids, viability, % test/control", "IC50", 0.00663]
]}

(a) COc1cccc2c1C(=O)c1c(O)c3c(c(O)c1C2=O)CC(O)(C(=O)CO)CC3OC1CC(N)C(O)C(C)O1 (stereo unspecified) + CNC(=O)c1ccc(Nc2nc(OC3CCCC3)c3c(-c4ccc5nc(C)oc5c4)c[nH]c3n2)c(OC)c1
(b) C=C(F)C(=O)N1CCN(c2nc(OCC3CCCN3C)nc3c2CCN(c2cccc4cccc(Cl)c24)C3)CC1CC#N (stereo unspecified) + CNC(=O)c1ccc(Nc2nc(OC3CCCC3)c3c(-c4ccc5nc(C)oc5c4)c[nH]c3n2)c(OC)c1
Request: Short answer wanted: higher IC50, a or b ? Mark your answer with the label of the selected entry.
Response: b

---

Parameter: pIC50. Scope: all listed entries.
- Test system: 922993-354-T-J3-PDC complex spheroids, viability, % test/control
- procedureText: Anticancer human tumor 922993-354-T-J3-PDC cell line growth inhibition [CLK];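 further: spheroids exposed to the agents for 7 days before readout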
- appliedConditions: curve of first compound; second compound 3.16 µM
pIC50: −log10 of the molar value.

Example entries begin here.
{"columns": ["molecule", "pIC50"],
 "data": [
  ["NC(=O)C(=Cn1cnc(-c2cc(C(F)(F)F)cc(C(F)(F)F)c2)n1)c1cncnc1 + CN1CCN(c2cc(C(=O)Nc3cc4cc(-c5cnn(C)c5)ccc4cn3)ccn2)CC1", "> 8.02"],
  ["COC1C=CCC(C)C(C)S(=O)(=O)NC(=O)c2ccc3c(c2)N(CC2CCC21)CC1(CCCc2cc(Cl)ccc21)CO3 (stereo not drawn) + CNC(=O)c1ccc(Nc2nc(OC3CCCC3)c3c(-c4ccc5nc(C)oc5c4)c[nH]c3n2)c(OC)c1", "> 7.50"]
]}

Request: Give its pIC50 value. Item: CC(CO)NC(=O)c1cc(-c2ccc(Cl)cc2)nn(-c2cnn(C)c2)c1=O (stereo not drawn) + CNC(=O)c1ccc(Nc2nc(OC3CCCC3)c3c(-c4ccc5nc(C)oc5c4)c[nH]c3n2)c(OC)c1
Response: > 7.50
